System: TK-10
protocolText: NCI tumour cell line growth inhibition, 48 h
Active and inactive are the calls of the source. Rule as the data show it: active = GI50 up to about 1.1 µM and inactive = higher.
measurementLabel: GI50

{"compound": "CC(C)(C)C1CC[C@H](O)[C@H]([C@@H](O)CC2CC(=O)N(c3ccccc3)C(=O)C2)C1 (some centres undefined)", "experimentalSystem": "TK-10", "measurementLabel": "GI50", "measValue": "> 100 µM (inactive)"}
{"compound": "CN1CC[C@]2(C)c3c(O)cccc3CC3CCCC1C32C (some centres undefined)", "experimentalSystem": "TK-10", "measurementLabel": "GI50", "measValue": "> 100 µM (inactive)"}
{"compound": "C[C@]12CCC(=O)C=C1CC[C@@H]1C2CC[C@]2(C)c3nn(-c4ccccc4)nc3CC12 (some centres undefined)", "experimentalSystem": "TK-10", "measurementLabel": "GI50", "measValue": "> 100 µM (inactive)"}
{"compound": "COC(=O)/C(=C/c1ccc(OC)cc1)c1cc(OC)c(OC)c(OC)c1", "experimentalSystem": "TK-10", "measurementLabel": "GI50", "measValue": "5.62 µM (inactive)"}
{"compound": "CCOc1cc(-c2nc3ccccn3c2/N=C/c2cc([N+](=O)[O-])cc([N+](=O)[O-])c2O)ccc1O", "experimentalSystem": "TK-10", "measurementLabel": "GI50", "measValue": "> 100 µM (inactive)"}
{"compound": "COc1c(-c2ccc3c(c2)OCO3)oc2cc3c(c(OC)c2c1=O)OCO3", "experimentalSystem": "TK-10", "measurementLabel": "GI50", "measValue": "25.5 µM (inactive)"}
{"compound": "OC1C2CCC1C1C3C=CC(C3)C21 (centres undefined)", "experimentalSystem": "TK-10", "measurementLabel": "GI50", "measValue": "> 100 µM (inactive)"}
{"compound": "O=S(=O)(N/C(=N\\O)Nc1ccc(Cl)cc1)c1cc(C(F)(F)F)cc(C(F)(F)F)c1", "experimentalSystem": "TK-10", "measurementLabel": "GI50", "measValue": "19.2 µM (inactive)"}
{"compound": "COc1c(-c2nc3ccc(N4CCN(C)CC4)nc3[nH]2)cc(OC)c2[nH]c(COC(C)=O)nc12", "experimentalSystem": "TK-10", "measurementLabel": "GI50", "measValue": "38.5 µM (inactive)"}
